All values here come from patent US9555039B2.

Overview of recorded pIC50 for various compounds
Target: Recombinant His-tagged NAMPT (Homo sapiens, UniProt P43490)
Construct: His; host or cells: E. coli
Sequence (P43490 whole entry): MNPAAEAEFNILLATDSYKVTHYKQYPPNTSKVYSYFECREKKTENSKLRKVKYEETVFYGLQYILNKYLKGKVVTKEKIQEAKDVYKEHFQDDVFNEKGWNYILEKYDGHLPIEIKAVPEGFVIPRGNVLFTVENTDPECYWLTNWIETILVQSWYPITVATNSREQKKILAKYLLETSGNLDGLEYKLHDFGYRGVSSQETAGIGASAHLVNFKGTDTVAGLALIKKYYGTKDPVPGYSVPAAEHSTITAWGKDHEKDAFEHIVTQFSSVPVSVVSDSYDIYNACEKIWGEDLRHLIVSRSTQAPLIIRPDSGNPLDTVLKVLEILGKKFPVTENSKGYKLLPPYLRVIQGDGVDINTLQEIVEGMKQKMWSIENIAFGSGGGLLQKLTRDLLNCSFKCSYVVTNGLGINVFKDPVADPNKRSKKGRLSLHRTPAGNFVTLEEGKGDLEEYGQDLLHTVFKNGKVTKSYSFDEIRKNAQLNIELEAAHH
Assay: Biochemical inhibition assay: NAMPT enzymatic reaction, NMN quantified by mass spectrometry
Details: 33 nM NAMPT, 1 μM NAM, 100 μM PRPP, 2.5 mM ATP, 30 minutes at room temperature; read-out: Biochem IC50
From the text: Biochemical Inhibition Assay NAMPT Protein Purification Recombinant His-tagged NAMPT was produced in E. coli cells, purified over a Ni column, and further purified over a size-exclusion column by XTAL Biostructures. The NAMPT Enzymatic Reaction […] A mass spectrometry-based assay was used to measure the Nampt reaction product (NMN) and the internal control (L-Cystathionine). NMN and L-Cystathionine were detected using the services of Biocius Lifesciences with the RapidFire system. […]
Answer as the number alone; pIC50 is minus log10 of concentration in mol/L.

Worked cases, pIC50 given:
SMI	OBSERVED PROPERTY	RESULT NUMBER
Cc1nc(CC(=O)N2CCC(CCCCNC(=O)c3ccc4nccn4c3)CC2)cs1	pIC50	7.72
O=C(NCCCCC1CCN(C(=O)c2cc(Cl)cc(Cl)c2)CC1)c1ccc2nccn2c1	pIC50	7.21

query: Data request, read-out pIC50, for `O=C(NCCCCC1CCN(C(=O)C2CCCCC2)CC1)c1cc2ccncc2s1`
result: 7.11

query: Name the reported pIC50 value associated with the compound `O=C(NCCCCC1CCN(C(=O)c2c(F)cccc2F)CC1)c1ccc2nccn2c1`
result: 8.33

====

molecular target: Recombinant His-tagged NAMPT (Homo sapiens, UniProt P43490); construct: His; host or cells: E. coli; experiment: Biochemical inhibition assay: NAMPT enzymatic reaction, NMN quantified by mass spectrometry; conditions: 33 nM NAMPT, 1 μM NAM, 100 μM PRPP, 2.5 mM ATP, 30 minutes at room temperature; read-out: Biochem IC50
OBSERVED PROPERTY: pIC50
Remember the convention: pIC50 equals -log10 of concentration in molar.

Recorded results for 5 compounds are shown here.
SMI	OBSERVED PROPERTY	RESULT NUMBER
O=C(NCCCCC1CCN(C(=O)c2ccc(Cl)cc2)CC1)c1cc2cnccc2[nH]1	pIC50	6.94
O=C(NCCCCC1CCN(C(=O)c2cc(F)ccc2F)CC1)c1cc2cnccc2[nH]1	pIC50	7.99
O=C(NCCCCC1CCN(C(=O)c2ccc(Cl)cc2)CC1)c1cc2ccncc2s1	pIC50	7.64
Cc1ccc(C(=O)N2CCC(CCCCNC(=O)c3cc4ccncc4s3)CC2)cc1F	pIC50	7.38
Cc1ncccc1C(=O)N1CCC(CCCCNC(=O)c2ccc3nccn3c2)CC1	pIC50	8.01

Let us examine a further case.
query: Which pIC50 is reported for this compound? `O=C(NCCCCC1CCN(C(=O)c2ccoc2)CC1)c1ccc2nccn2c1`
result: 8.21

====

test system: A2780 cells; assay: In-vitro cell proliferation assay (SRB, 72 hours); type: cell-based; conditions: Homo sapiens, sulforhodamine B (SRB) assay
Catalogue of IC50 values
Write the number in nM without appending the unit.

SMI	OBSERVED PROPERTY	RESULT NUMBER
COc1ccc(C(=O)N2CCC(CCCCNC(=O)c3ccc4nccn4c3)CC2)cc1OC	IC50	2.9

Consider now this further molecule.
query: Could you share what IC50 was measured for `COc1ccc(S(=O)(=O)N2CCC(CCCCNC(=O)c3cc4cnccc4[nH]3)CC2)c(OC)c1` , tested on A2780 cells?
result: 1.7

====

biological target: Recombinant His-tagged NAMPT (Homo sapiens); construct: His; host or cells: E. coli; experiment: Biochemical inhibition assay: NAMPT enzymatic reaction, NMN quantified by mass spectrometry; conditions: 33 nM NAMPT, 1 μM NAM, 100 μM PRPP, 2.5 mM ATP, 30 minutes at room temperature; read-out: Biochem IC50
OBSERVED PROPERTY: log10(IC50) (log10 of the value in µM)
Plainly stated, the numbers are log10 of IC50 given in µM.

query: Look at this molecule and give its reported log10(IC50). `O=C(NCCCCC1CCN(C(=O)c2cccc(F)c2F)CC1)c1cc2cnccc2[nH]1`
result: -1.92

====

Reported IC50 is given for each of the following molecules.
tested on: A2780 cells; experiment: In-vitro cell proliferation assay (SRB, 72 hours); type: cell-based; settings: Homo sapiens, sulforhodamine B (SRB) assay
Write your answer as a measured quantity: the number, then the unit.

Below: 4 molecules and their reported IC50.
SMI	IC50
O=C(NCCCCC1CCN(C(=O)c2ccccc2OC(F)(F)F)CC1)c1cc2cnccc2[nH]1	1.3 nM
Cc1nc(C)c(C(=O)N2CCC(CCCCNC(=O)c3ccc4nccn4c3)CC2)s1	6.6 nM
O=C(NCCCCC1CCN(C(=O)c2cc(F)ccc2F)CC1)c1cc2ccncc2s1	1.6 nM
O=C(NCCC1CCN(C(=O)c2ccccc2)CC1)c1cc2cnccc2[nH]1	20000 nM

Now consider a different molecule.
query: Name the reported IC50 value associated with the molecule `O=C(NCCCCC1CCN(C(=O)c2ccoc2)CC1)c1cc2ccncc2s1`
result: 6 nM

====

target: Recombinant His-tagged NAMPT (Homo sapiens); construct: His; host or cells: E. coli; assay: Biochemical inhibition assay: NAMPT enzymatic reaction, NMN quantified by mass spectrometry; details: 33 nM NAMPT, 1 μM NAM, 100 μM PRPP, 2.5 mM ATP, 30 minutes at room temperature; read-out: Biochem IC50
This listing pairs compounds with measured IC50.
Quick note: give the figure in nM, leave out the unit.

Examples with their reported IC50 follow.
SMI	IC50, nM
O=C(NCCCCC1CCN(C(=O)c2ccccc2)CC1)c1cc2cnccc2[nH]1	8.1
CC(C)c1ncoc1C(=O)N1CCC(CCCCNC(=O)c2ccc3nccn3c2)CC1	27.5
O=C(NCCCCC1CCN(C(=O)c2ccc(F)cc2F)CC1)c1ccc2nccn2c1	7.1
O=C(NCCCCC1CCN(S(=O)(=O)c2ccc(C(F)(F)F)cc2)CC1)c1cc2cnccc2[nH]1	74.8
Cc1ccc(C(=O)N2CCC(CCCCNC(=O)c3cc4ccncc4s3)CC2)cn1	69.7
CC(C)c1ccc(C(=O)N2CCC(CCCCNC(=O)c3cc4cnccc4[nH]3)CC2)cn1	86.7
Cn1cnc(C(=O)N2CCC(CCCCNC(=O)c3cc4cnccc4[nH]3)CC2)c1	93.7
COc1cc(Cl)ccc1C(=O)N1CCC(CCCCNC(=O)c2cc3ccncc3s2)CC1	15.5

Pending compound:
query: Consider the compound shown here: `COc1cccc(C(=O)N2CCC(CCCCNC(=O)c3cc4cnccc4[nH]3)CC2)c1OC` What is its recorded IC50?
result: 20.8

====

test system: A2780 cells; assay: In-vitro cell proliferation assay (SRB, 72 hours); format: cell-based; conditions: Homo sapiens, sulforhodamine B (SRB) assay
Recorded pIC50 values for a group of molecules are listed next.
Please express pIC50 as -log10 of the molar concentration.

SMI	MEASURED ON	pIC50
O=C(NCCCCC1CCN(C(=O)c2cccc(F)c2F)CC1)c1ccc2nccn2c1	A2780 cells	8.00
Cn1cc(CC(=O)N2CCC(CCCCNC(=O)c3ccc4nccn4c3)CC2)c2ccccc21	A2780 cells	7.67
O=C(NCCCCC1CCN(C(=O)c2ccc(C(F)(F)F)nc2)CC1)c1cc2ccncc2s1	A2780 cells	6.38
CCOc1cccc(C(=O)N2CCC(CCCCNC(=O)c3cc4cnccc4[nH]3)CC2)c1	A2780 cells	7.96
O=C(NCCCCC1CCN(C(=O)c2cc3cnccc3[nH]2)CC1)c1cc2ccncc2s1	A2780 cells	7.86

query: Provide the documented pIC50 with A2780 cells as the system for `Cn1cc(CC(=O)N2CCC(CCCCNC(=O)c3cc4ccncc4s3)CC2)c2ccccc21`
result: 7.62

query: Can you look up pIC50 on A2780 cells for `O=C(NCCc1ccc(OCc2ccccc2)cc1)c1cc2cnccc2[nH]1` ?
result: 5.70

query: Given the entry `O=C(NCCCCC1CCN(C(=O)c2ccc(Cl)cc2)CC1)c1cc2cnccc2[nH]1` , what pIC50 was observed with A2780 cells?
result: 7.18

query: Hello, I am looking for reported pIC50 with A2780 cells for `O=C(NCCCCC1CCN(C(=O)c2ccc(F)cn2)CC1)c1ccc2nccn2c1` . Could you help?
result: 7.17

query: Short answer please: pIC50, A2780 cells, entry `O=C(NCCCCC1CCN(S(=O)(=O)c2cc(F)ccc2F)CC1)c1cc2cnccc2[nH]1`
result: 8.24

query: Please tell me: pIC50 of `O=C(NCCCCC1CCN(C(=O)c2ccc3[nH]ccc3c2)CC1)c1ccc2nccn2c1` , system A2780 cells?
result: 7.73

query: Identify the measured pIC50 of `O=C(NCCCCC1CCN(C(=O)c2c(F)cccc2F)CC1)c1cc2ccncc2s1` for A2780 cells.
result: 9.10

query: Enter reported pIC50 observed with A2780 cells for `COc1ccc(C(=O)N2CCC(CCCCNC(=O)c3cc4cnccc4[nH]3)CC2)cc1`
result: 7.79

query: What measured pIC50 is associated with `O=C(NCCCCC1CCN(C(=O)c2cc3cnccc3[nH]2)CC1)c1ccc2nccn2c1` on A2780 cells?
result: 7.88

query: Provide value of pIC50 for this record tested with A2780 cells: `CC(C)Oc1ccc(C(=O)N2CCC(CCCCNC(=O)c3cc4cnccc4[nH]3)CC2)cc1`
result: 7.88

query: Request - read-out pIC50 | tested on A2780 cells | molecule `Cc1ccc(C(=O)N2CCC(CCCCNC(=O)c3cc4cnccc4[nH]3)CC2)cn1`
result: 7.67
